Sourced from PubChem BioAssay

# Experimental protocol: bacterial viability inhibition counter-screen, confirmation, counter-screen for AddAB inhibitor project, absorbance (AID 488956)
# Measurement parameters: absorbance (AddAB counterscreen), at 11.9 µM, hits give high values
Some of the results follow.
Label scheme for inhibition: lower than 90% is not met, 90% and above is met.

Q: Could you verify whether the entry O=C1c2ccccc2NC(c2ccc(-c3cccc(Cl)c3)o2)N1O (stereo unspecified) shows inhibition of no less than 90%?
Ans: not met

Q: Could you verify whether the entry O=C(Nc1ccc(Br)cn1)c1ccc([N+](=O)[O-])o1 shows inhibition of no less than 90%?
Ans: not met

Q: Could you verify whether the entry CN1CCN(c2cc3c(cc2F)c(=O)c(C(=O)O)cn3CCF)CC1 shows inhibition of no less than 90%?
Ans: met

Q: Could you verify whether the entry Cn1ccc(=Nc2ccc(NC(=O)c3ccc(N=c4ccn(C)c5ccc([N+](=O)[O-])cc45)cc3)cc2)cc1 shows inhibition of no less than 90%?
Ans: met

Q: Could you verify whether the entry C=CCNC(=O)c1cc(-c2ccccc2O)on1 shows inhibition of no less than 90%?
Ans: not met

====

# Measured on: Steroidogenic factor 1 (Homo sapiens) (UniProt Q13285)
# Sequence (Q13285 whole entry, looked up): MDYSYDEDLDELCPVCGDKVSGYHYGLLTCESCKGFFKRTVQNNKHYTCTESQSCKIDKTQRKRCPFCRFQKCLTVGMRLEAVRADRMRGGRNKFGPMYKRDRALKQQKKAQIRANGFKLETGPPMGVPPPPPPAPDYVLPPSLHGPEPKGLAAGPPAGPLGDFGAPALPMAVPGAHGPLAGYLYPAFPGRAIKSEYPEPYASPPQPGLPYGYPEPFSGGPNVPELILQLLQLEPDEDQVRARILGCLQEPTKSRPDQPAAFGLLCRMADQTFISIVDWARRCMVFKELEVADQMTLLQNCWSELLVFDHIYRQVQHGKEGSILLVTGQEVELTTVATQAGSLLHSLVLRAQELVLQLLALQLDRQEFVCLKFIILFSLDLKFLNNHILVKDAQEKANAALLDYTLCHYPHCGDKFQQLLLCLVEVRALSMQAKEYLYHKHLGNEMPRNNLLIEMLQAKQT
# Experimental protocol: SF1 (NR5A1) inverse agonists, counter-screen for LRH-1 inverse agonist project, cell-based, luminescence, high throughput (AID 651614);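 further: cells cotransfected with StAR promoter reporter and SF1 expression vector; 0% = vehicle on cells with receptor and 100% = vehicle on cells lacking receptor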
# Measurement parameters: cell-based SF1 luciferase reporter, at 3.6 µM, hits give high values
Label scheme for inhibition: lower than 50% is 0, 50% and above is 1.

Study these solved cases before continuing.
c1ccc(-n2nnnc2-c2cccc3ccccc23)cc1	1
O=S(=O)(c1ccc(NC(=S)NCc2cccnc2)cc1)N1CCCCC1	1
CCN(CC)S(=O)(=O)c1cc(NC(=O)CCCOc2ccc(C(C)=O)cc2)ccc1C	0
Cc1cc(OCC(=O)NC2CC2)c2c(C)c(C)c(=O)oc2c1	1
Cc1ccc(-c2nc(NC(=O)c3nn(C)cc3[N+](=O)[O-])sc2C)cc1	0

// switching to the query molecule
Q: Could you verify whether the entry CCc1nc(N)nc(N)c1-c1ccc(N(C)Cc2ccccc2)c([N+](=O)[O-])c1 shows inhibition of no less than 50%?
Ans: 1

====

# Experimental protocol: VP16 transactivation reporter inhibitors, counter-screen for LRH-1 inverse agonist project, cell-based, luminescence, high throughput (AID 651615)
# Measurement parameters: Gal4-VP16 luciferase reporter cells, at 3.6 µM
Active and inactive are the calls of the source. Cut-off read from the data, not from the text of the source: active = inhibition above about 33%; inactive = the rest.
Just give me one of these, please: yes (1) (active), no (0) (inactive)

Study these solved cases before continuing.
O=C1C=C(NCCc2ccccc2)C2(CCCCC2)O1	no (0)
Cn1cnnc1SCC(=O)Nc1ccc(N2CCOCC2)cc1	no (0)
O=Cc1ccc(N2CCCCCC2)cc1	no (0)
CCCNC(=O)c1sc2c(c1C(=O)Nc1ccccn1)CCCC2	no (0)
CCOC(=O)N1CCN(C(=O)CCl)CC1	no (0)

Q: In this assay, the call recorded for O=C1C(Cl)=C(N2CCOCC2)C(=O)N1c1ccc(Br)cc1 was what?
Ans: no (0)

Q: In this assay, the call recorded for Cc1cc(C(=O)Nc2ccc(Cl)cc2)c(C)n1-c1ccccc1 was what?
Ans: yes (1)

Q: In this assay, the call recorded for Cc1ccc(O)c(N=Nc2nccs2)c1 was what?
Ans: yes (1)

Q: In this assay, the call recorded for CC1CC(C)C(=NNC(N)=O)C(C(O)CC2CCC(=O)NC2=O)C1 (stereo not drawn) was what?
Ans: no (0)

Q: In this assay, the call recorded for COc1ccc(NC(=O)CS(=O)(=O)c2ccc(C)cc2)c(OC)c1 was what?
Ans: no (0)

Q: In this assay, the call recorded for O=C(NCc1ccco1)c1ccc([N+](=O)[O-])o1 was what?
Ans: no (0)

Q: In this assay, the call recorded for Nc1c2ccccc2nc2ccccc12 was what?
Ans: yes (1)

====

Items are presented alongside their recorded inhibition.
# Experimental protocol: VP16 transactivation reporter inhibitors, counter-screen for LRH-1 inverse agonist project, cell-based, luminescence, high throughput (AID 651615)
# Measurement parameters: Gal4-VP16 luciferase reporter cells, at 3.6 µM, hits give high values
Give just the numeric value; % need not be written.

COc1ccc(-n2c(-c3ccc(Cl)cc3)c[n+]3c2CCc2ccccc2-3)cc1	70.5
Cc1cc(O)c(NC(=O)c2cc([N+](=O)[O-])ccc2Cl)cc1C	-8.66

Q: Need inhibition of N#CC1=C(N)C(C#N)(C#N)[C@H](c2c(F)cccc2F)[C@H]2CC3(CC=C12)OCCO3 , thanks.
Ans: 17.2

====

Items are presented alongside their recorded inhibition.
# Tested on: transactivating tegument protein VP16 (Human herpesvirus 1), Gal4-VP16 luciferase reporter
# Experimental protocol: VP16 transactivation inhibitors, counter-screen for SRC3 inhibitor project, cell-based, luminescence, high throughput (AID 588794)
# Measurement parameters: mammalian cells, VP16-driven luciferase reporter luminescence; at 3.6 µM; hits give high values
Give just the numeric value; % need not be written.

The cases that follow already have their inhibition on record.
S=c1[nH]nc(C2CCCCC2)n1/N=C/c1ccncc1	60.4
O=C(CNc1cccc2ccccc12)N/N=C/c1ccc[nH]1	5.09
COc1cc(/C=C/C(=O)c2ccc(C)cc2)ccc1OCC#N	41.2
Oc1cccc2cc(Nc3ccccc3)cnc12	63.3
NC(=O)c1cc([N+](=O)[O-])ccc1NCc1ccc(O)cc1	43.5
CCOC(=O)C(=Cc1cc(=O)c(OC)co1)C(=O)OCC	52.1
O=c1oc2ccccc2cc1-c1cn(-c2ccccc2)c(=S)[nH]1	23.1
Cc1cc2[nH]c3ccccc3c2c(C)n1	18.7

Q: Need inhibition of CCCCCCCN(c1ccccc1)[C@@H]1C[C@H]2CCCC(=O)N3CC[C@@H](C1)[C@@H]23 , thanks.
Ans: 30.5

Q: Need inhibition of O=C(N/N=C/c1cc([N+](=O)[O-])ccc1O)c1cccc(N2CCCC2=O)c1 , thanks.
Ans: 14.3

Q: Need inhibition of O=C(N/N=C\c1c(O)ccc2ccccc12)c1cncc(Br)c1 , thanks.
Ans: 84

Q: Need inhibition of CCc1ccc(/C=C/c2c[nH]c3ccccc23)[n+](CC)c1 , thanks.
Ans: 43.6

====

# Test system: transactivating tegument protein VP16 (Human herpesvirus 1), Gal4-VP16 luciferase reporter
# Experimental protocol: VP16 transactivation inhibitors, counter-screen for SRC3 inhibitor project, cell-based, luminescence, high throughput (AID 588794)
# Measurement parameters: mammalian cells, VP16-driven luciferase reporter luminescence; at 3.6 µM; hits give high values
Parameter: inhibition (%)
Give just the numeric value; % need not be written.

The cases that follow already have their inhibition on record.
O=C(CN1C(=O)c2ccccc2S1(=O)=O)c1ccc2c(c1)OCCCO2	92.4
O=c1c2ccccc2sc2ccc(C#CC3(O)CCCCC3)cc12	84.4
CC(=O)c1cccc(NC(=O)Nc2cccnc2)c1	36.1
CCOc1ccc(OCC)c(NC(=O)CN(C)S(=O)(=O)c2cccc3nsnc23)c1	0.62
O=C(O)c1ccc(Cl)c(S(=O)(=O)NCc2cccnc2)c1	-9.62

Q: Need inhibition of COc1ccc(C(=O)/C=C/c2cc(OC)c(O)c(OC)c2)c(F)c1 , thanks.
Ans: 17.7

Q: Need inhibition of CC1(C)CC2(CC(c3ccccc3F)c3cc(Cl)c(O)cc3O2)NC(=S)N1 (stereo not given) , thanks.
Ans: 6.57

Q: Need inhibition of CC(C)(C)OC(=O)NCc1ccc(CNC(=O)c2[nH]cnc2C(=O)NC2CCN(C(=O)OC(C)(C)C)CC2)cc1 , thanks.
Ans: -0.72

Q: Need inhibition of C=CCN1CN(S(=O)(=O)c2cccs2)c2nc3ccccc3nc21 , thanks.
Ans: 7.9

Q: Need inhibition of Cc1cc(C)c(C#N)c(SCc2nnc(-c3ccccc3)o2)n1 , thanks.
Ans: 59.8

====

# Experimental protocol: VP16 transactivation reporter inhibitors, counter-screen for LRH-1 inverse agonist project, cell-based, luminescence, high throughput (AID 651615)
# Measurement parameters: Gal4-VP16 luciferase reporter cells, at 3.6 µM, hits give high values
Parameter: inhibition (%)
Give just the numeric value; % need not be written.

The cases that follow already have their inhibition on record.
O=C(NCCN1CCOCC1)c1ccc2c(c1)N(Cc1ccccc1F)C(=O)CS2	-9.87
Cc1ccc2[nH]cc(/C=C/c3cc[n+](C)cc3)c2c1	70.5
O=[N+]([O-])c1ccc(Sc2cccc[n+]2[O-])c2nonc12	98.9
COc1ccccc1-c1nnc(Sc2nc([N+](=O)[O-])nn2C)o1	64.1

Q: Need inhibition of COc1ccc(CCNC(=O)CSc2nnc(CNc3ccc(Cl)cc3)o2)cc1OC , thanks.
Ans: -2.14

Q: Need inhibition of O=c1c2ccccc2oc2cc(C#CC3(O)CCCCC3)ccc12 , thanks.
Ans: -40.4

Q: Need inhibition of Cc1c(/C(O)=C2/C(=O)C(=O)N(Cc3cccnc3)C2c2ccccn2)cnn1-c1ccccc1 (stereo not given) , thanks.
Ans: 7.05

Q: Need inhibition of O=C(NCC1CCCO1)c1ccc(NC(=O)c2cccc([N+](=O)[O-])c2)cc1 (stereo not given) , thanks.
Ans: -2.03

Q: Need inhibition of Cc1cc(OCc2nc(N)nc(N)c2-c2ccc(Cl)c(Cl)c2)ccc1[N+](=O)[O-] , thanks.
Ans: 42

Q: Need inhibition of Cc1cccn2c(=O)c3cc(C(=O)NCCN4CCOCC4)c(=N)n(Cc4cccnc4)c3nc12 , thanks.
Ans: 28.6
